EXPERIMENTAL_SYSTEM: Interstitial collagenase (Homo sapiens, UniProt P03956)
Sequence (P03956 whole entry): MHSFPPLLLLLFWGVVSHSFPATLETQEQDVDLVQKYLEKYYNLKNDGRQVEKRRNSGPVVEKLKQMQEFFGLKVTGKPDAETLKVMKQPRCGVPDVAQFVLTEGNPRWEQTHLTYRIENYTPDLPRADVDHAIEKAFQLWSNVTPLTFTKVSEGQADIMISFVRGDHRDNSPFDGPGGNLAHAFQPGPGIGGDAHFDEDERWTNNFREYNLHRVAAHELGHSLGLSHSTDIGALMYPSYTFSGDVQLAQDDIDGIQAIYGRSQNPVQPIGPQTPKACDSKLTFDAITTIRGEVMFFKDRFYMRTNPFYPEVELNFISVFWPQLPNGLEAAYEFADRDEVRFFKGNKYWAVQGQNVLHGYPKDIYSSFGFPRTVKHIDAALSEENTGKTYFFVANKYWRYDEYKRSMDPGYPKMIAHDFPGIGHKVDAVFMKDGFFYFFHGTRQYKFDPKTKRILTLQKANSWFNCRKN
pIC50: −log10 of the molar value.
MEASURED_ENDPOINT: pIC50

| MOLECULE | MEASURED |
| --- | --- |
| Cc1cccc(NC(=O)/C=C/c2ccccc2)c1 [N-M-TOLYLCINNAMAMIDE] | 5.34 |
| O=C(/C=C/c1cccc(O)c1)Nc1ccc(F)cc1 | 5.36 |
| COc1cccc(NC(=O)/C=C/c2cccc(O)c2)c1 | 5.29 |
| O=C(/C=C/c1cccc(O)c1)Nc1ccccc1F | 5.39 |

* * *

EXPERIMENTAL_SYSTEM: Interstitial collagenase (Homo sapiens)
Sequence (P03956 whole entry): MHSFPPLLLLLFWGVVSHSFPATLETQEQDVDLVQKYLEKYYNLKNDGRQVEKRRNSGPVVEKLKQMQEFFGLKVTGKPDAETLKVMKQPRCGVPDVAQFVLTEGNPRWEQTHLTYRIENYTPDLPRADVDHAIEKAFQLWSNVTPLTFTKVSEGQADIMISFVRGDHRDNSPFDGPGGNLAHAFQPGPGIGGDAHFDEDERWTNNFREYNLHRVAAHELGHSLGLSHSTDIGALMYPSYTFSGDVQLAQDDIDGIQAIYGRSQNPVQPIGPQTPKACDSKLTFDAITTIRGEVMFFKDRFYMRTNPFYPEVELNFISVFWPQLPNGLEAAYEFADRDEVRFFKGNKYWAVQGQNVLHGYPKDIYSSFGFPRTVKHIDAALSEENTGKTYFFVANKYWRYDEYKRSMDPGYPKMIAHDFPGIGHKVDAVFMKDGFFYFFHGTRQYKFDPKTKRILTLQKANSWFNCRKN
Binary label based on IC50 with cut-off 4 µM: below gives MET, not below gives NOT MET.

| COMPOUND | CAT |
| --- | --- |
| O=C(/C=C/c1ccc(O)c(O)c1)Nc1cccc(F)c1 | NOT MET |
| O=C(/C=C/c1ccc(O)c(O)c1)Nc1ccccc1O | NOT MET |
| COc1ccc(NC(=O)/C=C/c2ccc(O)c(O)c2)cc1 | NOT MET |
| O=C(/C=C/c1cccc(O)c1)Nc1ccccc1O | NOT MET |
| Cc1ccc(NC(=O)/C=C/c2ccccc2)cc1 [N-P-TOLYLCINNAMAMIDE] | NOT MET |
| O=C(/C=C/c1cccc(O)c1)Nc1ccccc1 [3-HYDROXY-CINNAMANILIDE] | MET |
| Cc1ccccc1NC(=O)/C=C/c1ccccc1 [N-O-TOLYLCINNAMAMIDE] | NOT MET |
| O=C(O)/C=C/c1ccc(O)c(O)c1 | MET |
| O=C(/C=C/c1ccc(O)c(O)c1)Nc1ccccc1F | NOT MET |
| O=C(/C=C/c1cccc(O)c1)NCCc1ccccc1 | MET |
